Assay: Plasma pharmacokinetics of Ge in mice after i.v., i.n. and i.g. administration of Gardenia-Borneol co-compound
Type: in vivo
Settings: mouse, in vivo, iv, plasma, i.v., 18 mg/kg gardenia extract + 18 mg/kg borneol
metric: Cmax
Report as: number unit

Looking up COC(=O)C1=CO[C@@H](O[C@@H]2O[C@H](CO)[C@@H](O)[C@H](O)[C@H]2O)[C@@H]2C(CO)=CC[C@H]12 [Ge, geniposide] , I found its Cmax recorded as 42400 ng/mL

###

Assay: Brain pharmacokinetics and brain targeting of Ge in mice after i.v., i.n. and i.g. administration of Gardenia-Borneol co-compound
Assay type: in vivo
Conditions: ICR, mouse, inhaled or intranasal, brain, i.n., 18 mg/kg gardenia extract + 18 mg/kg borneol
metric: Cmax (ng/g)
Give a bare numeral; the unit ng/g is implied.

Looking up COC(=O)C1=CO[C@@H](O[C@@H]2O[C@H](CO)[C@@H](O)[C@H](O)[C@H]2O)[C@@H]2C(CO)=CC[C@H]12 [Ge, geniposide] , I found its Cmax recorded as 747

###

Test: Plasma pharmacokinetics of Ge in mice after i.v., i.n. and i.g. administration of Gardenia-Borneol co-compound
Assay type: in vivo
Conditions: mouse, in vivo, iv, plasma, i.v., 18 mg/kg gardenia extract + 18 mg/kg borneol, read-out: AUC0–120 (converted)
metric: AUC(0-t) (ng·h/mL)
Give a bare numeral; the unit ng·h/mL is implied.

Looking up COC(=O)C1=CO[C@@H](O[C@@H]2O[C@H](CO)[C@@H](O)[C@H](O)[C@H]2O)[C@@H]2C(CO)=CC[C@H]12 [Ge, geniposide] , I found its AUC(0-t) recorded as 5410

###

Test: Plasma pharmacokinetics of Ge in mice after i.v., i.n. and i.g. administration of Gardenia-Borneol co-compound
Assay type: in vivo
Details: mouse, inhaled or intranasal, plasma, i.n., 18 mg/kg gardenia extract + 18 mg/kg borneol
metric: Tmax (min)
Give a bare numeral; the unit min is implied.

Looking up COC(=O)C1=CO[C@@H](O[C@@H]2O[C@H](CO)[C@@H](O)[C@H](O)[C@H]2O)[C@@H]2C(CO)=CC[C@H]12 [Ge, geniposide] , I found its Tmax recorded as 1

###

Assay: Brain pharmacokinetics and brain targeting of Ge in mice after i.v., i.n. and i.g. administration of Gardenia-Borneol co-compound
Format: in vivo
Conditions: ICR, mouse, inhaled or intranasal, 18 mg/kg, brain, i.n.
metric: Tmax

Looking up COC(=O)C1=CO[C@@H](O[C@@H]2O[C@H](CO)[C@@H](O)[C@H](O)[C@H]2O)[C@@H]2C(CO)=CC[C@H]12 [Ge, geniposide] , I found its Tmax recorded as 3 min
